Details: [M+H]+; instrument: TW; calibrated with phosphatidylcholines (ESI+) and phosphatidylethanolamines (ESI-)
readout kind: collision cross section (N2) (Å²)

molecule | collision cross section (N2) / Å²
CCCCCCCCCCCCC=CC[C@@H](O)[C@H](COP(=O)([O-])OCC[N+](C)(C)C)NC(=O)CC=CCCCCCCCCCCCCCCCCCCCC [SM(d18:1/24:1)] | 300.7
CCCCCCCCCCCCCC(=O)OC[C@@H](O)COP(=O)([O-])OCC[N+](C)(C)C [LPC(14:0)] | 220.8
CCCCCCCCCCCCC=CC[C@@H](O)[C@H](CO)NC(=O)CCCCCCCCCCCCCCCCCCCCC [Cer(d18:1/22:0)] | 271.8
CCCCCC/C=C\CCCCCCCCCC(=O)OC[C@H](COP(=O)([O-])OCC[N+](C)(C)C)OC(=O)CCCCCCCCCCCCC [PC(32:1)] | 278
CCCCCC/C=C/CCCCCCCC(=O)OC[C@@H](O)COP(=O)([O-])OCC[N+](C)(C)C [LPC(16:1)] | 223.4
CCCCCCCCCCCCC=CC[C@@H](O)[C@H](CO[C@@H]1O[C@H](CO)[C@@H](O)C(O)C1O)NC(=O)CC=CCCCCCCCCCCCCCCCCCCCCCC (stereo partly specified) [GlcCer(d18:1/26:1)] | 304.5

Values were extracted from the C3SDB collision cross section collection.
